assay: NCI Yeast Anticancer Drug Screen. Data for the rad50 strain (AID 155);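 further: 0% = growth of vehicle-only cultures of the same strain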; details: S. cerevisiae rad50 strain growth inhibition; at 50.0 µM; active compounds read high
The panel holds about 79,000 compounds, 15% with a hit somewhere; the sample as a whole holds those more often. Activity calls are given as the source filed them. No stated cut-off is given here; in the data, active means growth inhibition above about 70%; inactive means the rest.

| compound | growth inhibition |
| --- | --- |
| CC(C)(CCCCC(C)(C)C1NC(=O)N1)C1NC(=O)N1 | -42.6% (inactive) |
| COC(=O)c1cc(C)c(C)c2c1NC(=O)CNC2=O | -4.1% (inactive) |
| Cc1cc(O)c(/C=N/c2nc(-c3ccc([N+](=O)[O-])cc3)cs2)c(=O)o1 | 58.1% (inactive) |
| CC(C)Cc1cnc(CC(C)C)c(=O)[nH]1 | -13.6% (inactive) |
| O=C1/C(=C\c2ccc(O)cc2)CCC/C1=C/c1ccc(Cl)c(Cl)c1 | -0.5% (inactive) |
| O=C(c1no[n+]([O-])c1C(=O)c1csc2ccccc12)c1csc2ccccc12 | -9.7% (inactive) |
| O=c1[nH]nnc2ccccc12 | 2.85% (inactive) |
| Nc1ccc([N+](=O)[O-])c(C(=O)O)c1 | -10.2% (inactive) |
| c1ccc2c[n+]3cc4ccccc4cc3cc2c1 | 30.9% (inactive) |
| Cc1nc(Nc2ccccc2Cl)sc1C(=O)CC(=O)C(N)=O | 37.1% (inactive) |
| COc1ccc(C2S/C(=C\c3cccc(O)c3)C(=O)N2NC(=O)Cc2ccccc2)cc1 (stereo unspecified) | -15.3% (inactive) |

====

assay: NCI Yeast Anticancer Drug Screen. Data for the mlh1 rad18 strain (AID 175); conditions: S. cerevisiae mlh1 rad18 strain growth inhibition; at 50.0 µM; active compounds read high
Compounds without any hit were thinned out: in the full panel of roughly 79,000, 15% have a hit.
property: growth inhibition (%)

| compound | property | unit-of-measurement | measured-value |
| --- | --- | --- | --- |
| Nc1nc(N)c(-c2ccc(Cl)cc2)c(CNc2cccc([N+](=O)[O-])c2)n1 | growth inhibition | % | 99.2 |
| CC1(Br)CP(=O)(c2ccccc2)CC1Br (stereo not given) | growth inhibition | % | -6 |
| Brc1c(CCc2ccc3ccccc3c2Br)ccc2ccccc12 | growth inhibition | % | 19.6 |
| O=C(O)CCC1(c2ccccc2)CCCCC1 | growth inhibition | % | -0.9 |
| Clc1ccc(Nc2ncnc3oc(-c4ccccc4)c(-c4ccccc4)c23)cc1 | growth inhibition | % | 4.65 |

====

test: NCI Yeast Anticancer Drug Screen. Data for the bub3 strain (AID 167); conditions: S. cerevisiae bub3 mutant strain, at 50.0 µM, active compounds read high
Compounds without any hit were thinned out: in the full panel of roughly 79,000, 15% have a hit.

| compound | growth inhibition / % |
| --- | --- |
| O=C(O)c1ccc(OCCOc2ccccc2)c(Cl)c1 | 63.6 |
| Cc1ccsc1/C=N/NC(N)=S | 9.2 |
| O=C(O)/C=C(/C(=O)O)c1cccn1Cc1ccccc1 | 13.4 |
| O=C(Nn1c(-c2ccccc2)nc2ccccc2c1=O)c1ccc([N+](=O)[O-])cc1 | 17.2 |
| O=C(O)C1CSC2(CCCC2)N1 (stereo unspecified) | 5.7 |
| CCOC(=O)C(=CNc1ccc(F)c(F)c1)C(=O)OCC | 26.1 |
| CC12CCC(NC(=O)C3CCCN3C(=O)OCc3ccccc3)CC1CCC1C2CCC2(C)C(NC(=O)C3CCCN3C(=O)OCc3ccccc3)CCC12 (stereo unspecified) | -5.35 |
| CC1C(c2ccccc2)(N(C)C)CS1(=O)=O (stereo unspecified) | 12.7 |
| O=C(O)CNC(=O)c1cccc(Cl)c1 | 16.9 |
| Cc1c(C)c(O)c2c(c1C)C(C)C(=O)OC2=O (stereo unspecified) | -19.3 |
| CCC(=O)Oc1ccc(C(OC(=O)CC)OC(=O)CC)cc1OC | 9.45 |

====

experiment: NCI Yeast Anticancer Drug Screen. Data for the mlh1 rad18 strain (AID 175); conditions: S. cerevisiae mlh1 rad18 strain growth inhibition; at 50.0 µM; active compounds read high
The panel holds about 79,000 compounds, 15% with a hit somewhere; the sample as a whole holds those more often.
property: growth inhibition (%)

| substance-smiles | measured-value |
| --- | --- |
| O=c1[nH][nH]c(=O)c(Cl)c1Cl | 13.3 |
| Cn1ccc(=O)n(C)c1=O | 2.25 |
| CCCCCCCCCCCCCCCCS(=O)(=O)N/N=C(/c1ccccc1Cl)N1CCOCC1 | -6.75 |

====

Assay: NCI Yeast Anticancer Drug Screen. Data for the rad50 strain (AID 155);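 further: 0% = growth of vehicle-only cultures of the same strain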
Settings: S. cerevisiae rad50 strain growth inhibition; at 50.0 µM; active compounds read high
Procedure: Growth inhibition of yeast strains with defined genetic alterations is measured as a screen for potential anti-cancer activity. Selected strains with alterations in DNA damage repair or cell cycle control were exposed to compounds and growth inhibition was measured relative to vehicle treated controls. The strain used in this assay is rad50
Compounds without any hit were thinned out: in the full panel of roughly 79,000, 15% have a hit. Calls of active or inactive are those of the source. No stated cut-off is given here; in the data, active means growth inhibition above about 70%; inactive means the rest. Where a SMILES comes first, the peptide text is derived from it.
The compounds listed here are annotated with their growth inhibition.

| compound | growth inhibition |
| --- | --- |
| CCOC(=O)c1c[nH]n(Cc2ccccc2)c1=O | 12% (inactive) |
| CCOC(=O)C(C)(C(=O)OCC)c1c[n+]([O-])c2ccccc2c1[N+](=O)[O-] | 13.8% (inactive) |
| COC(=O)C[C@H](C)[C@H](C)CC(=O)O | -17.6% (inactive) |
| Cc1cc(C)c(CC(=O)NCC(=O)NN)c(C)c1 | -7.25% (inactive) |
| CC1NC(=O)C2CCCN2C(=O)C2CCCN2C(=O)C(C(C)C)NC(=O)C(Cc2ccccc2)NC(=O)C(Cc2ccccc2)NC(=O)C2CCCN2C(=O)C2CCCN2C(=O)C(Cc2ccccc2)NC(=O)C(Cc2ccccc2)NC1=O (centres undefined) (cyclo(AFFPPFFVPP); configuration not given here) | 6.65% (inactive) |
| CCCC(P(c1ccccc1)c1ccccc1)P(=O)(c1ccccc1)c1ccccc1 (centres undefined) | 62.7% (inactive) |
| COc1cc2c(cc1OC)C(c1ccc([N+](=O)[O-])c(C)c1)=NCC2 | 28.1% (inactive) |
| O=C(O)CCC1(c2ccccc2)CCCCC1 | 6.1% (inactive) |
| Cc1ccc(/C=C2\N=C(N3CCCC(CO)C3)NC2=O)cc1 (centres undefined) | 18.6% (inactive) |

====

The compounds listed here are annotated with their growth inhibition.
assay: NCI Yeast Anticancer Drug Screen. Data for the mec2-1 strain (AID 157); conditions: S. cerevisiae mec2-1 strain, at 50.0 µM, active compounds read high
The panel holds about 79,000 compounds, 15% with a hit somewhere; the sample as a whole holds those more often.
property: growth inhibition (%)

| compound | measured-value |
| --- | --- |
| COc1ccc(N=NC(=S)NNc2ccc(OC)cc2Oc2ccccc2)c(Oc2ccccc2)c1 | -0.4 |
| COc1ccc(/C=C/C(=O)N(C)C)cc1 | 5.65 |
| CCC(C)OC(=O)CC(c1ccccc1)N1CCCCC1 (stereo not drawn) | -10.4 |
| Cc1ccc(NC(=O)NCCCN2CCOCC2)cc1NC(=O)NCCCN1CCOCC1 | -22.6 |
| Cc1ccc(S(=O)(=O)N/N=C/c2oc(-c3ccncc3)c(-c3ccncc3)c2[N+](=O)[O-])cc1 | 10.8 |
| O=C(NCCNCCNC(=O)C(F)(F)F)C(F)(F)F | -16.9 |
| CCOC(=O)C(=[N+]=[N-])C(=O)CN1C(=O)c2ccccc2C1=O | -7 |
| COCCCC(O)CNC(C)C (stereo not drawn) | 7.1 |
| C/C(Cc1cccc2ccccc12)=N/NC(N)=O | -27.8 |
| Nc1ccc(Nc2cc(=O)[nH]c(=O)[nH]2)cc1Cl | 6.6 |
| C=CC[Si](CC=C)(CC=C)OCC | -17.6 |
| Cc1ccc(/C=C/C(=O)c2c([O-])on[n+]2-c2ccccc2)cc1 | -7.85 |
| Cc1nsc2[nH]c(=O)n(Nc3ccc(O)cc3)c(=O)c12 | 1.1 |

====

test: NCI Yeast Anticancer Drug Screen. Data for the mec2-1 strain (AID 157); conditions: S. cerevisiae mec2-1 strain, at 50.0 µM, active compounds read high
Compounds without any hit were thinned out: in the full panel of roughly 79,000, 15% have a hit.
The compounds listed here are annotated with their growth inhibition.

| compound | growth inhibition, % |
| --- | --- |
| O=c1c2cc(Cl)ccc2on1CN1CCOCC1 | 11.4 |
| CC(=O)Nc1cc(F)c(N=Nc2ccc(F)cc2)c(F)c1 | -0.6 |
| COC(=O)C(C(=O)c1ccccc1)c1ccccc1 (stereo not drawn) | 16.9 |
| CC(=O)Oc1cccc2cc3cc(C)cc(OC(C)=O)c3c(OC(C)=O)c12 | 3.8 |
| CCOc1ccc(NC(=O)C(=O)C(/C(=N/N)C(=O)OC)c2nc3ccc([N+](=O)[O-])cc3[nH]c2=O)cc1 (stereo not drawn) | -6 |
| NNC(=O)CC(=O)Nc1ccccc1F | -16.9 |
| COC(=O)Nc1nc2c(OC)c(OC)c(OC)cc2[nH]1 | -6.75 |
| COc1cc2ccc(/C=C/C(=O)c3ccc4c(c3)OCO4)cc2cc1OC | -3.75 |
